Values compiled from ChEMBL document CHEMBL1132120.

// IC50 collected for Matrix metalloproteinase-9 (Homo sapiens, UniProt P14780)

# compound, IC50 (µM)
data = [
    ("CC(C)(C)NC(=O)C(c1ccc(Oc2ccccc2)cc1)N1C(=O)[C@H](CS)NC(=O)[C@@H]1Cc1ccc([N+](=O)[O-])cc1 (some centres undefined)", 4.4),
    ("CCc1ccc(C(C(=O)NC(C)(C)C)N2C(=O)[C@H](CS)NC(=O)[C@@H]2Cc2ccc([N+](=O)[O-])cc2)cc1 (some centres undefined)", 2.6),
    ("CC(C)(C)NC(=O)C(c1ccc(-c2ccccc2)cc1)N1C(=O)[C@H](CS)NC(=O)[C@@H]1Cc1ccc([N+](=O)[O-])cc1 (some centres undefined)", 4.3),
    ("CC(C)(C)NC(=O)C(Cc1ccccc1)N1C(=O)[C@H](CS)NC(=O)[C@@H]1Cc1ccc([N+](=O)[O-])cc1 (some centres undefined)", 1.2),
]

----------
system.name: Matrix metalloproteinase-9 (Homo sapiens, UniProt P14780)
Sequence (P14780 whole entry): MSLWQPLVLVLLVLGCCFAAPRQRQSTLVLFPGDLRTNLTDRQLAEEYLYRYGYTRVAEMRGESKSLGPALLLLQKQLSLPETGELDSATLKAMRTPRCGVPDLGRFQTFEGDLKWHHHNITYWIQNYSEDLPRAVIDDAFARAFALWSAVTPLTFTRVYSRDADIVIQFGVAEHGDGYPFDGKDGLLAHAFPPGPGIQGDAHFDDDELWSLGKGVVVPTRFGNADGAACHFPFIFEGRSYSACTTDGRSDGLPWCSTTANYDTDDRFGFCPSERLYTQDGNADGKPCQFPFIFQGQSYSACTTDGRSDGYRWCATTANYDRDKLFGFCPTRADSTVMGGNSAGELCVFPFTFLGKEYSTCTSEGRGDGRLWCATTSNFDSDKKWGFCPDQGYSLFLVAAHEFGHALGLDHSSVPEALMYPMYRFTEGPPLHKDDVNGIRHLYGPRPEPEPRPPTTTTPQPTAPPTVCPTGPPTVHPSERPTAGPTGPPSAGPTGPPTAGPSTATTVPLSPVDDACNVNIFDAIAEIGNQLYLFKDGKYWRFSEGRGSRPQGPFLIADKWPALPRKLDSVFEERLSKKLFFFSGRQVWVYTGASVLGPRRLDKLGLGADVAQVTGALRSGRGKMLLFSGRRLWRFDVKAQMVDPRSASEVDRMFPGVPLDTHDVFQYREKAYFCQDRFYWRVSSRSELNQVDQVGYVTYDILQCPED
test.description: Inhibitory activity against Matrix metalloprotease-9
Set-up: species or system Komagataella pastoris
readout.name: IC50 (nM)

# compound, readout.name, inequality.sign, reported.measurement
records = [
    ("CCCN1C(=O)[C@H](CS)NC(=O)[C@@H]1Cc1ccc(NC(C)=O)cc1", "IC50", ">", 40000),
    ("CC(C)(C)NC(=O)C(C1CC1)N1C(=O)[C@H](CS)NC(=O)[C@@H]1Cc1ccc([N+](=O)[O-])cc1 (stereo partly drawn)", "IC50", "=", 1180),
    ("COc1ccc(C(C(=O)NC(C)(C)C)N2C(=O)[C@H](CS)NC(=O)[C@@H]2Cc2ccc([N+](=O)[O-])cc2)cc1 (stereo partly drawn)", "IC50", "=", 1300),
    ("CCCCOc1ccc(C(C(=O)NC(C)(C)C)N2C(=O)[C@H](CS)NC(=O)[C@@H]2Cc2ccc([N+](=O)[O-])cc2)cc1 (stereo partly drawn)", "IC50", "=", 3200),
    ("CCCN1C(=O)[C@H](CS)NC(=O)[C@@H]1Cc1ccc([N+](=O)[O-])cc1", "IC50", "=", 2900),
    ("CCCCCCCC(C(=O)NC(C)(C)C)N1C(=O)[C@H](CS)NC(=O)[C@@H]1Cc1ccc([N+](=O)[O-])cc1 (stereo partly drawn)", "IC50", "=", 1500),
    ("CC(C)CC(C(=O)NC(C)(C)C)N1C(=O)[C@H](CS)NC(=O)[C@@H]1Cc1ccc([N+](=O)[O-])cc1 (stereo partly drawn)", "IC50", "=", 570),
    ("CC(C)(C)NC(=O)C(c1ccccc1)N1C(=O)[C@H](CS)NC(=O)[C@@H]1Cc1ccc([N+](=O)[O-])cc1 (stereo partly drawn)", "IC50", "=", 1300),
]

----------
test.description: Inhibitory activity against stromelysin.
pIC50: −log10 of the molar value.
Listing of entries alongside the reported pIC50.
readout.name: pIC50

# smiles.string, reported.measurement
measured = [
    ("O=C1N[C@@H](CS)C(=O)N(Cc2ccc3ccccc3n2)[C@H]1Cc1ccc([N+](=O)[O-])cc1", "< 4.70"),
    ("CCCN1C(=O)[C@H](CS)NC(=O)[C@@H]1Cc1ccc(NC(C)=O)cc1", "< 4.40"),
    ("COc1ccc(CN2C(=O)[C@H](CS)NC(=O)[C@@H]2Cc2ccc([N+](=O)[O-])cc2)cc1", "< 4.40"),
    ("CCCN1C(=O)[C@H](CS)NC(=O)[C@@H]1Cc1ccc([N+](=O)[O-])cc1", "< 4.70"),
]
